B1: Neutrophil cytosol factor 2, residues 456 to 514; numbered along this chain, P19878 (parent)
chain: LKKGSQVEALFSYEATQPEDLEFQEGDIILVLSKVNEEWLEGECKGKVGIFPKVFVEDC

- Variants of: B1
- Method Summary: abundance fitness (aPCA) (normalised: wild type 0, dead -1); higher = more abundant; growth selection in yeast, the domain comes from the species named
- Assay Conditions: Homo sapiens
abundance fitness of -0.07 or higher: Satisfied. Under -0.07: Not satisfied.

Field: example entries. Status: answers known.
Sequence String: LKKGAQVEALFSYEATQPEDLEFQEGDIILVLSKVNEEWLEGECKGKVGIFPKVFVEDC [S5A]
Assigned Label: Satisfied
--
Sequence String: LKKRSQVEALFSYEATQPEDLEFQEGDIILVLSKVNEEWLEGECKGKVGIFPKVFVEDC [G4R]
Assigned Label: Not satisfied
--
Sequence String: LKKGSQVEALFSYEATAPEDLEFQEGDIILVLSKVNEEWLEGECKGKVGIFPKVFVEDC [Q17A]
Assigned Label: Satisfied
--
Sequence String: LKKGSQVEALFSYEATQPEDLEFQEGDIILVLSKVDEEWLEGECKGKVGIFPKVFVEDC [N36D]
Assigned Label: Not satisfied
--
Sequence String: LKKGSQVEALFSYEATQPEDLEFQEGDIILVLSKVNEEWLEGECKGKPGIFPKVFVEDC [V48P]
Assigned Label: Not satisfied

Q: Quick check: does LKKGSQVEALFSYEATQPEDLEFQEGDIILVLSKVNEECLEGECKGKVGIFPKVFVEDC [W39C] have abundance fitness greater than or equal to -0.07?
Result: Not satisfied

Q: Item LKKGSQTEALFSYEATQPEDLEFQEGDIILVLSKVNEEWLEGECKGKVGIFPKVFVEDC [V7T] with abundance fitness of -0.07 or above?
Result: Satisfied

Q: Reported abundance fitness at or above -0.07? LKKGSQVEALFSYEATQPEDLETQEGDIILVLSKVNEEWLEGECKGKVGIFPKVFVEDC [F23T]
Result: Not satisfied

Q: Check the entry LKKGSQVEALFSYEATQPEDLEFQEGDIILVLSKVNEEWLEGECKGKVGIFPKVYVEDC [F55Y] : does abundance fitness equal or exceed -0.07?
Result: Satisfied

Q: abundance fitness >= -0.07 for LKKGSQWEALFSYEATQPEDLEFQEGDIILVLSKVNEEWLEGECKGKVGIFPKVFVEDC [V7W] ?
Result: Not satisfied

These entries and their values trace back to the Human Domainome abundance scans (Beltran et al. 2025).
